# assayed_system: ROCK1 (Homo sapiens, UniProt Q13464)
# Construct: 15 μl kinase reaction volume with 5 ng ROCK1 enzyme
# Sequence (Q13464 whole entry): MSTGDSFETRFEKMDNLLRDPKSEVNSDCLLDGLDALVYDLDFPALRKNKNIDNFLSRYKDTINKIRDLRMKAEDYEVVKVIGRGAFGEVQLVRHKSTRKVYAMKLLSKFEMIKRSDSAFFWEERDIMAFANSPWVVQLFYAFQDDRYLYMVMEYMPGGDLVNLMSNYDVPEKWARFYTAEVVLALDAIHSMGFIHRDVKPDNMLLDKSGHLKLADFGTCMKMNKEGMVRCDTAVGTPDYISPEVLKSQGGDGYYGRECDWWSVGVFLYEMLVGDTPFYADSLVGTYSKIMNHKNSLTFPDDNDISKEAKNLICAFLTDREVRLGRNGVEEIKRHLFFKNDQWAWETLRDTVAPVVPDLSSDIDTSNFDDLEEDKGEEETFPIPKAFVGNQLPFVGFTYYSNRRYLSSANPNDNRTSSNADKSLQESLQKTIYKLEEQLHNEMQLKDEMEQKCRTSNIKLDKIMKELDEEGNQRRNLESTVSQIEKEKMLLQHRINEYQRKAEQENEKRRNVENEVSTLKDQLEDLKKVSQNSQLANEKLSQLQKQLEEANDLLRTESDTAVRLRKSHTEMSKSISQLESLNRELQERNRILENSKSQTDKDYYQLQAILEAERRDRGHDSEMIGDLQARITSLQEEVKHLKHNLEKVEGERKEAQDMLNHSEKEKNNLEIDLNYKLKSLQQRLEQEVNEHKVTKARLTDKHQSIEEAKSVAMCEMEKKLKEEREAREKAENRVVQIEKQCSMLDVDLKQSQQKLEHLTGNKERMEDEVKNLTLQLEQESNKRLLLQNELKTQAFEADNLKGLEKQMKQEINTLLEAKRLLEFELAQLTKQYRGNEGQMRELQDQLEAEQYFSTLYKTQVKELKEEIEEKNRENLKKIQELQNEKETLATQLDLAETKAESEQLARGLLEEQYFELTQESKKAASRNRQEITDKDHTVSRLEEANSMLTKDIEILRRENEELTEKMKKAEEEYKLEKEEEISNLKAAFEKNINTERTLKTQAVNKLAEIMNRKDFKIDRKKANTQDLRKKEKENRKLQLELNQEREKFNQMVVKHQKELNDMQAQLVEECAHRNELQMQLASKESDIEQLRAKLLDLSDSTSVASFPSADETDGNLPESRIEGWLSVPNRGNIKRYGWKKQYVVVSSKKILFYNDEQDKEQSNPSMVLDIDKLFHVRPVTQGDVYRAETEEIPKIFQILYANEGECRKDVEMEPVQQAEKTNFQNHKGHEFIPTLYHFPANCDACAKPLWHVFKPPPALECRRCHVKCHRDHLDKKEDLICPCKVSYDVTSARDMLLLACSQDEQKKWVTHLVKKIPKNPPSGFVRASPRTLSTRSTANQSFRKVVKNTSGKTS
# test_protocol: Z′-LYTE kinase assay, ROCK1 enzyme activity
# Format: biochemical
# reported_conditions: ROCK1, 12.5 μM ATP, 8-point dilutions, three individual times
IC50 strictly under 20 µM means satisfied; at 20 µM or over means not satisfied.

Ask: Is 20 µM strictly greater than the compound's reported IC50? compound: CN(Cc1cccc(C(=O)Nc2ccc3[nH]ncc3c2)c1)Cc1cc[nH]n1 [TS-f6]
Result: satisfied

Ask: Is 20 µM strictly greater than the compound's reported IC50? compound: CNc1cc(-c2ccccc2OCCn2ccnc2)c2cc[nH]c2n1 [TS-27]
Result: not satisfied

Ask: Is 20 µM strictly greater than the compound's reported IC50? compound: O=C(NCCc1c[nH]cn1)c1coc(COc2cccc3cnccc23)n1 [TS-f10]
Result: not satisfied

Ask: Is 20 µM strictly greater than the compound's reported IC50? compound: CCCCNC(=O)c1ccc(-c2ccnc3[nH]ccc23)o1 [TS-f32]
Result: satisfied

Ask: Is 20 µM strictly greater than the compound's reported IC50? compound: COCc1nc2cc(-c3ccnc4[nH]ccc34)ccc2o1 [TS-f25]
Result: satisfied

Ask: Is 20 µM strictly greater than the compound's reported IC50? compound: OCCCNCc1cccc(-c2ccnc3[nH]ccc23)c1 [TS-f5]
Result: satisfied

Further cases:
Ask: Is 20 µM strictly greater than the compound's reported IC50? compound: c1cc(OCCn2ccnc2)cc(-c2ccnc3[nH]ccc23)c1 [TS-f37]
Result: satisfied

Ask: Is 20 µM strictly greater than the compound's reported IC50? compound: NCC1CCN(Cc2ccc(-c3nc(-c4ccncc4)cc(=O)[nH]3)cc2)CC1 [TS-f7]
Result: not satisfied

Ask: Is 20 µM strictly greater than the compound's reported IC50? compound: Cc1nc(-c2cccc(-c3ccnc4[nH]ccc34)c2)no1 [TS-f26]
Result: satisfied

Ask: Is 20 µM strictly greater than the compound's reported IC50? compound: Nc1cc(-c2ccc(C3(O)CCNCC3)cc2)c2cc[nH]c2n1 [TS-28]
Result: satisfied

Ask: Is 20 µM strictly greater than the compound's reported IC50? compound: O=c1[nH]c2ccc(-c3cc(NC4CCCC4)nc4[nH]ccc34)cc2[nH]c1=O [TS-11]
Result: not satisfied

Ask: Is 20 µM strictly greater than the compound's reported IC50? compound: CN(Cc1cc(F)ccc1O)Cc1cccc2cnccc12 [TS-f28]
Result: not satisfied

Ask: Is 20 µM strictly greater than the compound's reported IC50? compound: COCCNc1cc(-c2ccc(C3(O)CCNCC3)cc2)c2cc[nH]c2n1 [TS-16]
Result: satisfied

Ask: Is 20 µM strictly greater than the compound's reported IC50? compound: O=S(=O)(c1ccccc1)c1ccc(-c2ccnc3[nH]ccc23)cc1 [TS-f13]
Result: satisfied
